The measurements presented in this section are drawn from PubChem BioAssay AID2642.

# targetOrSystem: Potassium voltage-gated channel subfamily KQT member 1 (Homo sapiens) (UniProt P51787)
# Sequence (P51787 whole entry, looked up): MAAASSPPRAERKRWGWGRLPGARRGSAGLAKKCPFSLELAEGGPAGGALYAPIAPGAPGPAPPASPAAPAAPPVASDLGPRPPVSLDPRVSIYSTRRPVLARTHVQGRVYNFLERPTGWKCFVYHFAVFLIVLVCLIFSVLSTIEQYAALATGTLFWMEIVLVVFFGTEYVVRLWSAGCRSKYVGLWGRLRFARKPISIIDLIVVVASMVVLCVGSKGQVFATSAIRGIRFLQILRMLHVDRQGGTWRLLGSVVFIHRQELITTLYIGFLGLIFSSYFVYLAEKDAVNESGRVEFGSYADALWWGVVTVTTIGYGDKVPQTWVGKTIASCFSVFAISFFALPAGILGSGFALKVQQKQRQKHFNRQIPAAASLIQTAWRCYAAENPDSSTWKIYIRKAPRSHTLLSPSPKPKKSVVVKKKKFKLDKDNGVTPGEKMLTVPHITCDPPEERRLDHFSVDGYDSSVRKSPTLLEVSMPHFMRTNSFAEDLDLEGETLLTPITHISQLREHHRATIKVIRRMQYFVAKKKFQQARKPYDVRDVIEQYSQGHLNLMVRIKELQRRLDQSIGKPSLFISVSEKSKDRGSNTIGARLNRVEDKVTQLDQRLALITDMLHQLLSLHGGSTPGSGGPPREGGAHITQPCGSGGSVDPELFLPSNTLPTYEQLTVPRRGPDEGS
# testDetails: inhibitors of human KCNQ1 channel, primary screen, cell-based, thallium flux, high-throughput (AID 2642);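 also: channel opened by potassium depolarization with thallium stimulus after 20 min compound exposure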
# conditionContext: CHO-K1 KCNQ1, FluxOR thallium flux fluorescence, at 10 µM
About 3,900 (1.3%) of roughly 310,000 compounds were called active.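 The calls were made as follows: active = compounds whose thallium flux B-score, printed positive for inhibition, exceeds three library SD while starting fluorescence stays within three; inactive = the rest.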 Shown is part of a subset that was picked to be rich in actives.
Outcomes: class 1 for active, class 0 for inactive

1) CCN1CCN(CCNC(=O)c2ccc(/C=C3/Sc4ccccc4N(Cc4cccc(C)c4)C3=O)cc2)CC1
class 1
2) c1ccc2c(NCC3CCCO3)nc(-c3ccncc3)nc2c1 (stereo not drawn)
class 0
3) CCN1CCN(CCNC(=O)c2ccc3c(c2)NC(=O)/C(=C\c2ccc(OC)c(OC)c2)S3)CC1
class 0
4) O=C(O)c1ccc(N/N=C/c2cn(-c3ccccc3)nc2-c2cccs2)cc1
class 0
5) O=C(NCCCN1CCOCC1)c1ccc2c(c1)N(Cc1cccc(F)c1)C(=O)c1ccccc1S2
class 0
6) O=C(NCCN1CCOCC1)c1ccc2c(c1)N(Cc1ccc(Cl)cc1)CCS2
class 0
7) COc1ccccc1NC(=O)C[n+]1ccccc1
class 0
8) Cc1nc(-c2ccc(Cl)cc2)sc1C1(C)CC(c2ccc(Br)cc2)=NO1 (stereo not drawn)
class 0
9) COC(=O)C[n+]1cccc2ccccc21
class 1
10) COc1ccc(C(CNC(=O)c2cccc(S(=O)(=O)Nc3ccccc3Cl)c2)N2CCOCC2)cc1 (stereo not drawn)
class 0
11) Cc1cccc[n+]1CC(=O)c1ccccc1
class 0
12) Cc1nc2ccccc2cc1OCc1ccc(F)cc1
class 1
13) CCCCCCCC[n+]1cccc(C(=O)N2c3c(nc(N)[nH]c3=O)NC(C)C2C)c1 (stereo not drawn)
class 0
14) CC(=O)c1cc2c(cc1NC(=O)Cn1nc(-c3ccc(F)cc3)ccc1=O)OCO2
class 0
15) CC(C)C(=O)Nc1ccc2c(c1)oc1ccccc12
class 0
16) CCCCCC(O)c1cccc(OCc2ccc3ccccc3n2)c1 (stereo not drawn)
class 1
17) CCOC(=O)C1=C(C)Nc2sc(C(=O)c3ccc(Br)cc3)c(N)c2C1c1ccc(C(=O)OC)cc1 (stereo not drawn)
class 1
18) Clc1cccc(-c2nc(NCC3CCCO3)c3ccccc3n2)c1 (stereo not drawn)
class 1
19) COc1ccc(NC(=O)NNC(=O)COc2cc(C)c(Cl)c(C)c2)c(OC)c1
class 0
20) CC(NC(=O)COC(=O)C1CCN(S(=O)(=O)c2ccccc2C(F)(F)F)CC1)c1ccccc1 (stereo not drawn)
class 0
21) C[n+]1ccc(/C=C/c2c[nH]c3ccccc23)cc1
class 1
22) O=C(CSc1nnc(SCc2ccc(F)cc2)s1)Nc1ccc(C(=O)O)cc1
class 0
23) O=C(NCCN1CCOCC1)c1ccc(/C=C2\Sc3ccccc3N(Cc3ccc(F)cc3)C2=O)cc1
class 1
24) CCCc1ccc(C(=O)[C@@H]2[C@@H](C(C)=O)N3c4ccc(F)cc4C=C[C@@H]3[C@@]23C(=O)Nc2ccccc23)cc1
class 0
25) COc1ccc(/C=C2/SC(=O)N(CCCCCC(=O)Nc3ccccc3C(=O)O)C2=S)cc1
class 1
26) C=CCOC(=O)C1=C(C)NC(SCC(=O)OCC)=C(C#N)C1c1ccc(C)cc1 (stereo not drawn)
class 1
27) CCOC(=O)c1sc(=S)n2c1[nH]c(=O)c1ccc(C(=O)OC)cc12
class 0
28) CCCCCCOC(=O)NCC(O)c1ccccc1 (stereo not drawn)
class 0
29) COc1cccc(C(O)c2nc3ccccc3n2C)c1 (stereo not drawn)
class 0
30) CC(=O)Nc1ccc(N2C(=O)CCC2=O)cc1C
class 0
31) Cc1nc(C(=O)NCc2ccccc2)sc1C1(C)CC(c2cccnc2)=NO1 (stereo not drawn)
class 0
32) COc1ccc(/C=C(\C#N)c2c[nH]c3ccccc23)cc1
class 0
33) CCNC(=S)N(CCN(CC)CC)Cc1cc2cc3c(cc2[nH]c1=O)OCO3
class 0
34) CCn1cc(CNC(=O)c2cc([N+](=O)[O-])c(C)c([N+](=O)[O-])c2)cn1
class 0
35) Cc1ccc(S(=O)(=O)N(C)C)cc1NC(=O)COC(=O)c1c(C)noc1C
class 0
36) CCOC(=O)C1(CCOc2ccccc2)CCN(Cc2ccc(C#CCCO)cc2)CC1
class 0
37) COc1ccc(C2C(C#N)=C(/N=C/N3CCOCC3)OC3=C2C(=O)CC(C)(C)C3)cc1OC (stereo not drawn)
class 0
38) CC(C)(C)OC(=O)N/N=C/c1cn(-c2ccccc2)nc1-c1cccnc1
class 0
39) O=C(NCCc1ccccc1)c1ccc2c(c1)N(Cc1ccccc1)CCS2
class 1
40) CC(c1nnc(SCC(=O)Nc2sccc2C#N)n1-c1ccc(Cl)cc1)N(C)C (stereo not drawn)
class 0
41) COc1ccc(/C=C2\SC(=O)N(CCC(=O)NCCCn3ccnc3)C2=O)cc1
class 0
42) O=C(O)c1ccccc1NC(=O)c1ccccc1-c1ccccc1C(=O)O
class 0
43) Cc1ccc(-c2nn(-c3ccccc3)cc2/C=N/NC(=O)c2ccc3c(c2)OCO3)cc1
class 1
